Test: amyloid nucleation score (Sup35N fusion, yeast selection) (log enrichment); library NNK3; higher = more nucleation; inactive = no reads after selection;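 also: zero at mode of non-aggregating sequences after 7 days selection at 30°C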
measurement_kind: amyloid nucleation score

[
  {
    "substance": "FFCFLDYDYSIFEQVNEGLS",
    "reported": "inactive"
  },
  {
    "substance": "SVSPEWYSSLLGSLCGAGFL",
    "reported": "inactive"
  },
  {
    "substance": "YNFGLVNV",
    "reported": "inactive"
  },
  {
    "substance": "MTLSVRMAEEQN",
    "reported": "inactive"
  },
  {
    "substance": "YGEAAYRDRS",
    "reported": "inactive"
  },
  {
    "substance": "TFQRSGT",
    "reported": "inactive"
  },
  {
    "substance": "LLKEFIL",
    "reported": "inactive"
  },
  {
    "substance": "QLIWYTACKASIDVNRHGSG",
    "reported": "inactive"
  },
  {
    "substance": "GNNVTHSRDRCSMWYWVHLL",
    "reported": "inactive"
  },
  {
    "substance": "PCILPKRTRIIVR",
    "reported": "inactive"
  },
  {
    "substance": "SHVLWCNMVNEFVHTLSRCG",
    "reported": 1.34
  },
  {
    "substance": "SLCLASGFKRCNIV",
    "reported": -0.072
  },
  {
    "substance": "SAPNYVRSSLFCN",
    "reported": "inactive"
  },
  {
    "substance": "HLVAVWVSWGILYRSVHCRS",
    "reported": "inactive"
  },
  {
    "substance": "MHAMCQLWCSS",
    "reported": -0.323
  },
  {
    "substance": "GLQVYMIQRIETGM",
    "reported": "inactive"
  },
  {
    "substance": "LMNEKNPSQDNRFRIVRALS",
    "reported": "inactive"
  },
  {
    "substance": "LGPVIS",
    "reported": -0.46
  },
  {
    "substance": "FCRLGIRSVFIYFKVTSLIV",
    "reported": 0.049
  },
  {
    "substance": "QNECLGHQNWLNVVLKVAMM",
    "reported": "inactive"
  },
  {
    "substance": "MSVRGHSSTVVYLCREPGLK",
    "reported": 0.402
  },
  {
    "substance": "YRRYPVIR",
    "reported": "inactive"
  },
  {
    "substance": "RDIMGLDLFQARNTTRSNYK",
    "reported": "inactive"
  },
  {
    "substance": "IERSDSVSWRGVLVGIEMKV",
    "reported": "inactive"
  },
  {
    "substance": "RWNEAHITSYVYSRTSMWVF",
    "reported": "inactive"
  },
  {
    "substance": "HGMVRCKSDQACDSMVGCVR",
    "reported": "inactive"
  },
  {
    "substance": "VIYHPRFSRFLCEDWHDTCS",
    "reported": "inactive"
  },
  {
    "substance": "YLSVIKNTIPEMWIIVGVCR",
    "reported": "inactive"
  },
  {
    "substance": "QLLSLVKISNKLTVI",
    "reported": "inactive"
  },
  {
    "substance": "RYSSNRLTLMWDCIEGGSAW",
    "reported": 1.03
  },
  {
    "substance": "IVCRISTTCQWCRINVSGGS",
    "reported": 1.12
  },
  {
    "substance": "ILVKIRNRCLEVE",
    "reported": -0.32
  },
  {
    "substance": "NLGLLKAVYCVG",
    "reported": "inactive"
  },
  {
    "substance": "AKVRLDGSIGEVHFMELVSY",
    "reported": "inactive"
  },
  {
    "substance": "VLNSRTTPFI",
    "reported": "inactive"
  },
  {
    "substance": "NLNKNRLLMTMHWNRVFLMS",
    "reported": "inactive"
  },
  {
    "substance": "TTHNAFMSNNNIR",
    "reported": 0.711
  },
  {
    "substance": "WWNLWSPAATATRRCY",
    "reported": -0.462
  },
  {
    "substance": "IWKAWDNSSMGCPS",
    "reported": -0.032
  },
  {
    "substance": "CTCFRGSTFRNAYN",
    "reported": "inactive"
  },
  {
    "substance": "ARLSEAVLGNVSDIGRVCNL",
    "reported": "inactive"
  },
  {
    "substance": "CWNDSLLCYMSSTMGNVQTT",
    "reported": "inactive"
  },
  {
    "substance": "ASLRDAPILYDASE",
    "reported": "inactive"
  },
  {
    "substance": "EVIVVKGHGVHIVFCVGSAS",
    "reported": "inactive"
  },
  {
    "substance": "GRCMEGS",
    "reported": "inactive"
  },
  {
    "substance": "FLKCGRSVPGV",
    "reported": "inactive"
  },
  {
    "substance": "ESMRGSYSYYSSGCLHD",
    "reported": "inactive"
  },
  {
    "substance": "WLSRPLCIIGWASRSMRGSH",
    "reported": "inactive"
  },
  {
    "substance": "GDFYASGSPVKFVRVGMDEC",
    "reported": "inactive"
  },
  {
    "substance": "ASRPFFRPVRQVSEVLPGQW",
    "reported": 0.058
  },
  {
    "substance": "NESHILPVVVMDCLRTFPTE",
    "reported": "inactive"
  },
  {
    "substance": "HWACNWI",
    "reported": "inactive"
  },
  {
    "substance": "SYKGLCS",
    "reported": "inactive"
  },
  {
    "substance": "LSSYTVSFPKRMHRSEYFGY",
    "reported": -0.73
  },
  {
    "substance": "TISISR",
    "reported": "inactive"
  },
  {
    "substance": "NLSNIFQSNMYVTRSVNGVR",
    "reported": 1.68
  },
  {
    "substance": "CIRGVQNTGCGAQACYPVCR",
    "reported": "inactive"
  },
  {
    "substance": "FQWITSIRSSKKMGCY",
    "reported": "inactive"
  },
  {
    "substance": "LHTSTTPKTMKRRSQLSNQK",
    "reported": "inactive"
  },
  {
    "substance": "SIFKVISERQSV",
    "reported": "inactive"
  },
  {
    "substance": "ISVFIRTCMWKFVVVPRGYW",
    "reported": "inactive"
  },
  {
    "substance": "RSILRNSLSTQMHIGSVSLM",
    "reported": "inactive"
  },
  {
    "substance": "IEYRKITKLIKLGISGVERS",
    "reported": -0.978
  },
  {
    "substance": "HYYVSTDLWSIMMYTILRPC",
    "reported": "inactive"
  },
  {
    "substance": "TKYAHPPTQDDPLCGIRRSV",
    "reported": "inactive"
  },
  {
    "substance": "SYRYFGGSDYRLCGGIWMLA",
    "reported": "inactive"
  },
  {
    "substance": "HGAVRQLNRGRKWSSLETVG",
    "reported": 0.85
  },
  {
    "substance": "RIVEGMYLYVLS",
    "reported": "inactive"
  },
  {
    "substance": "FGYVQVTKDPSFMCNYGMQS",
    "reported": "inactive"
  },
  {
    "substance": "NTPVGLINYSGDTWLMAIRW",
    "reported": "inactive"
  },
  {
    "substance": "FNQFHFKCSFNQCCYLNQAA",
    "reported": "inactive"
  },
  {
    "substance": "IGWKEVSA",
    "reported": -0.006
  },
  {
    "substance": "VLDVVGKKFMRVSWQDGMPG",
    "reported": 1.13
  }
]

====

Experiment: amyloid nucleation score (Sup35N fusion, yeast selection) (log enrichment); library NNK1; higher = more nucleation; inactive = no reads after selection
Threshold check on amyloid nucleation score: at or above 0.7 gives Fulfilled, strictly below gives Not fulfilled.

[
  {
    "substance": "VLGSVIGFLWNP",
    "answer_label": "Fulfilled"
  },
  {
    "substance": "SFGANYTLILTVIIQRLADQ",
    "answer_label": "Fulfilled"
  },
  {
    "substance": "PMTKCMLSSLGWCAHVPVRE",
    "answer_label": "Not fulfilled"
  },
  {
    "substance": "YCKFMLMGNHCFDLFCYSLN",
    "answer_label": "Fulfilled"
  },
  {
    "substance": "VYHVTWRLPF",
    "answer_label": "Fulfilled"
  },
  {
    "substance": "SSVYVSIQLGGTLPRWGGVR",
    "answer_label": "Fulfilled"
  },
  {
    "substance": "YGSDGCKRRKGSTALAIVTY",
    "answer_label": "Not fulfilled"
  },
  {
    "substance": "VNVIWAFYNN",
    "answer_label": "Fulfilled"
  },
  {
    "substance": "LPKKDNHSSTNA",
    "answer_label": "Not fulfilled"
  },
  {
    "substance": "ENVGRTLAYIWMVWLSSQML",
    "answer_label": "Fulfilled"
  },
  {
    "substance": "QWCVKESAFIYEYRLSGDCL",
    "answer_label": "Not fulfilled"
  },
  {
    "substance": "SFRYFKLSCYFFFLVFAVFF",
    "answer_label": "Not fulfilled"
  },
  {
    "substance": "TWRCQLIYTCGNVSRKPVLL",
    "answer_label": "Not fulfilled"
  },
  {
    "substance": "QIIKENFRRSY",
    "answer_label": "Fulfilled"
  },
  {
    "substance": "KTLRNNLLFIQSTPK",
    "answer_label": "Not fulfilled"
  },
  {
    "substance": "GFKGQRNNAIQVMGKKNRLQ",
    "answer_label": "Not fulfilled"
  },
  {
    "substance": "MIWAEQCVMWPGACVMVIK",
    "answer_label": "Fulfilled"
  },
  {
    "substance": "LIQRLVFEYMFPVIGVPISW",
    "answer_label": "Not fulfilled"
  },
  {
    "substance": "KDALDHHLIMLRGYVVLQS",
    "answer_label": "Not fulfilled"
  },
  {
    "substance": "LVCSIMWNGVRHAPVRCKPT",
    "answer_label": "Not fulfilled"
  },
  {
    "substance": "GDKSFSYCSLCCLFWARLPR",
    "answer_label": "Fulfilled"
  },
  {
    "substance": "VLTNESRGYTIRLGSYSRFV",
    "answer_label": "Fulfilled"
  },
  {
    "substance": "TIDCMLWGYFRNDSTKCTAA",
    "answer_label": "Not fulfilled"
  },
  {
    "substance": "NSCWRTGLQVPVSQHYNQTI",
    "answer_label": "Not fulfilled"
  },
  {
    "substance": "LNATGSLPYDIMECTKELWP",
    "answer_label": "Not fulfilled"
  },
  {
    "substance": "TPGVKPYYWIRLTEIVATHS",
    "answer_label": "Not fulfilled"
  },
  {
    "substance": "GNKDDTV",
    "answer_label": "Not fulfilled"
  },
  {
    "substance": "RVTVIIFTLSRGYIIMSRNR",
    "answer_label": "Not fulfilled"
  },
  {
    "substance": "HYRFCYCHSTKS",
    "answer_label": "Fulfilled"
  },
  {
    "substance": "FPFFLMCMSSGFYSV",
    "answer_label": "Fulfilled"
  },
  {
    "substance": "FSGVTMR",
    "answer_label": "Fulfilled"
  },
  {
    "substance": "VLLCNFRSRVWRYRCFKAFS",
    "answer_label": "Fulfilled"
  }
]
